Data provenance: patent US20230408517A1

For each entry below, report its IC50 value.
# Subject Of Test: recombinant SARS-CoV-2 spike S1 RBD (R319-F541), C-terminal 6-His (SARS-CoV-2, UniProt P0DTC2 319-541)
# Method Notes: lateral flow NC50, RBD-AuNP vs immobilised ACE2
Respond numerically; units are µg/mL and should not be typed.

Query (binder): 1035753 (antibody, V domains shown) VH: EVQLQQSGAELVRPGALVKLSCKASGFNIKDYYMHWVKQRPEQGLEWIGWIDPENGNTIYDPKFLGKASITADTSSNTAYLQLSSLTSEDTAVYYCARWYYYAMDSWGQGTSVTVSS VL: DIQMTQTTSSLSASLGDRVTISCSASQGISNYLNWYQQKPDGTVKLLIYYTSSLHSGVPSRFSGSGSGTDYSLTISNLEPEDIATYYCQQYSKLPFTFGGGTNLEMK ; field requested: IC50
1.66

Can you check 1035419 (antibody, V domains shown) VH: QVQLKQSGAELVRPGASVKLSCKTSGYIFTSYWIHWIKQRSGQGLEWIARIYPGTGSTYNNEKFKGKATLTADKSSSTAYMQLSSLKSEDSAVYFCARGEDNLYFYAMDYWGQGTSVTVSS VL: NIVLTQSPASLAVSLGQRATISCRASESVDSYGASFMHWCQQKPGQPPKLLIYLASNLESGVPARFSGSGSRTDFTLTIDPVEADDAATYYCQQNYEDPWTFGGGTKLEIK next?
3.27

Can you check 1035740 (antibody, V domains shown) VH: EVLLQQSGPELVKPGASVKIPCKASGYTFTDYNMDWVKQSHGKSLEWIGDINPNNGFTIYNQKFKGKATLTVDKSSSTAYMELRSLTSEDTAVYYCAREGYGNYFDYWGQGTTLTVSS VL: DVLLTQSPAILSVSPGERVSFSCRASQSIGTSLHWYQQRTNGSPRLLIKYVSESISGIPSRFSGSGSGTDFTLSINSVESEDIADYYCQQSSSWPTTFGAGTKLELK next?
1.43

Can you check 1035762 (antibody, V domains shown) VH: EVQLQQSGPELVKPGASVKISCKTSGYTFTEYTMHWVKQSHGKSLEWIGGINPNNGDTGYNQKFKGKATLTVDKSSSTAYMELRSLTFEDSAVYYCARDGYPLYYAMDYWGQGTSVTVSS VL: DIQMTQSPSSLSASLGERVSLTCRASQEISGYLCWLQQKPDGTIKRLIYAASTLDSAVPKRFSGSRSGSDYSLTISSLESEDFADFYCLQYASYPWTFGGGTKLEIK next?
0.69
